- measurement notes: Phase 1 pharmacokinetic study of inhaled cromolyn, plasma
- Format: in vivo, human
- test conditions: human, inhaled, 17.1 mg, median, read-out: AUC0-inf
measured parameter: AUC(0-inf)

Exam item: Quick one: AUC(0-inf) of "O=C(O)c1cc(=O)c2c(OCC(O)COc3cccc4oc(C(=O)O)cc(=O)c34)cccc2o1" ?
Marked response: 207 ng·h/mL

---

- measurement notes: Phase 1 pharmacokinetic study of inhaled cromolyn, plasma
- Assay type: in vivo, human
- test conditions: human, inhaled or intranasal, 34.2 mg, double dose (34.2 mg) inhalation, mean ± SD, read-out: average Cmax
measured parameter: Cmax (µg/mL)
One number for each entry, in µg/mL.

Exam item: For the molecule shown here, "O=C(O)c1cc(=O)c2c(OCC(O)COc3cccc4oc(C(=O)O)cc(=O)c34)cccc2o1" , give the reported Cmax.
Marked response: 0.0968

---

- measurement notes: Phase 1 pharmacokinetic study of inhaled cromolyn, plasma
- Assay type: in vivo, human
- test conditions: human, inhaled or intranasal, 34.2 mg, 34.2 mg double inhaled dose, mean
measured parameter: Vd/F (L)
Numbers only, in L.

Exam item: Which Vd/F value belongs to O=C(O)c1cc(=O)c2c(OCC(O)COc3cccc4oc(C(=O)O)cc(=O)c34)cccc2o1 [cromolyn] ?
Marked response: 330

---

- measurement notes: Phase 1 pharmacokinetic study of inhaled cromolyn, plasma
- Format: in vivo, human
- test conditions: human, inhaled or intranasal, 17.1 mg, single dose (17.1 mg) inhalation, mean ± SD, read-out: average Cmax
measured parameter: Cmax

Exam item: Quick check: Cmax of O=C(O)c1cc(=O)c2c(OCC(O)COc3cccc4oc(C(=O)O)cc(=O)c34)cccc2o1 [cromolyn] ?
Marked response: 46.7 ng/mL

---

- measurement notes: Phase 1 pharmacokinetic study of inhaled cromolyn, plasma
- Type: in vivo, human
- test conditions: human, inhaled, 17.1 mg, median
measured parameter: Tmax
// return the numeric value with its unit appended

Exam item: Look at this compound and give its reported Tmax. "O=C(O)c1cc(=O)c2c(OCC(O)COc3cccc4oc(C(=O)O)cc(=O)c34)cccc2o1"
Marked response: 15 min

---

- measurement notes: Phase 1 pharmacokinetic study of inhaled cromolyn, plasma
- Format: in vivo, human
- test conditions: human, inhaled or intranasal, 17.1 mg, 17.1 mg single inhaled dose, mean
measured parameter: Vd/F (L)
Answers are plain numbers, in L.

Exam item: Data request, read-out Vd/F, for O=C(O)c1cc(=O)c2c(OCC(O)COc3cccc4oc(C(=O)O)cc(=O)c34)cccc2o1 [cromolyn]
Marked response: 137

---

- measurement notes: Phase 1 pharmacokinetic study of inhaled cromolyn, plasma
- Type: in vivo, human
- test conditions: human, inhaled or intranasal, 34.2 mg, double dose (34.2 mg) inhalation, range, read-out: Cmax range
measured parameter: Cmax

Exam item: Fill in the blank: the reported Cmax of "O=C(O)c1cc(=O)c2c(OCC(O)COc3cccc4oc(C(=O)O)cc(=O)c34)cccc2o1" is ____.
Marked response: 36.1 to 236 ng/mL

---

- measurement notes: Phase 1 pharmacokinetic study of inhaled cromolyn, plasma
- Format: in vivo, human
- test conditions: human, inhaled, 17.1 mg, Max, read-out: Cmax
measured parameter: Cmax (ng/mL)
Give bare numbers, in ng/mL.

Exam item: Query: Cmax; subject: "O=C(O)c1cc(=O)c2c(OCC(O)COc3cccc4oc(C(=O)O)cc(=O)c34)cccc2o1"
Marked response: 133

Entry source: patent US20230248646A1
